These data points were gathered from ChEMBL document CHEMBL1148740.

Measured Vd, listed per entry.
Test: Volume of distribution in Sprague-Dawley rat at 2 mg/kg, po and 1 mg/kg, iv
Assay type: ADME, organism-based
Settings: in vivo, read-out: Vss
quantity kind: Vd (L/kg)

> print(dat)
                               input.smiles  units.label  observed.measurement
1  Cc1ccc(NC(=O)C(C)C)cc1C1CCN(CCCNC(=O)[C@@H](C)c2ccc(F)cc2)CC1         L/kg                   3.4
2  CC(C)C(=O)Nc1cc(C2CCN(CCCNC(=O)C(c3ccc(F)cc3)c3ccc(F)cc3)CC2)c(F)cc1F         L/kg                   3.6
